Data provenance: paper PMC8658787

- system.under.test: UniProtKB P00734
quantity.name: pIC50
Note on units: pIC50 is unitless, being -log10 of a concentration expressed in mol/L.

Task item: Check UniProtKB P00734 data and give pIC50 for CCC/C=C1\OC(=O)C2=C1CCC=C2 [Z-ligustilide] .
Reply: 2.84

---

What follows is a record of pIC50 for factor Xa (FXa) (Homo sapiens, UniProt P00742).
Note on units: pIC50 is unitless, being -log10 of a concentration expressed in mol/L.

Take a look at these entries with their results.
# compound, pIC50
records = [
    ("Cc1coc2c1C(=O)C(=O)c1c-2ccc2c1CCCC2(C)C [Tanshinone IIA]", 3.86),
    ("COc1cc(/C=C/C(=O)O)ccc1O [Ferulic acid]", 2.60),
]

Attention now turns to another entry.
Task item: Check factor Xa (FXa) (Homo sapiens, UniProt P00742) data and give pIC50 for O=C(O)/C=C/c1ccc(O)c(O)c1 [Caffeic acid] .
Reply: 2.42
